- Tested on: PXR:RXRa (NR concentration 270 nM, RXRa partner concentration 90 nM)
- measurement_protocol: PBM binding z-score (relative to random genomic background probes); higher = stronger binding; sequences stand for … in GC…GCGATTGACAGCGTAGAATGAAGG
Class Condition met: PBM binding z-score at least 0.7. Class Condition not met: PBM binding z-score below 0.7.

Does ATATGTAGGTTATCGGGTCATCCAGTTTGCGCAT have a reported PBM binding z-score of at least 0.7? Condition met

Does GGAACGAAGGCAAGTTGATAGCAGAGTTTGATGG have a reported PBM binding z-score of at least 0.7? Condition not met

Does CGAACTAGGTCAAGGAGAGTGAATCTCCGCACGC have a reported PBM binding z-score of at least 0.7? Condition met

Does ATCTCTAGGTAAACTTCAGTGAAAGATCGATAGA have a reported PBM binding z-score of at least 0.7? Condition not met

Does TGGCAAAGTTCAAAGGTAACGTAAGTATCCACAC have a reported PBM binding z-score of at least 0.7? Condition met

Does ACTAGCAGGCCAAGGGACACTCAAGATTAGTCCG have a reported PBM binding z-score of at least 0.7? Condition not met
